biological target: Human immunodeficiency virus type 1 integrase (Human immunodeficiency virus 1, UniProt Q7ZJM1); experiment: Inhibition of recombinant HIV1 integrase strand transfer activity
Sequence (Q7ZJM1 whole entry): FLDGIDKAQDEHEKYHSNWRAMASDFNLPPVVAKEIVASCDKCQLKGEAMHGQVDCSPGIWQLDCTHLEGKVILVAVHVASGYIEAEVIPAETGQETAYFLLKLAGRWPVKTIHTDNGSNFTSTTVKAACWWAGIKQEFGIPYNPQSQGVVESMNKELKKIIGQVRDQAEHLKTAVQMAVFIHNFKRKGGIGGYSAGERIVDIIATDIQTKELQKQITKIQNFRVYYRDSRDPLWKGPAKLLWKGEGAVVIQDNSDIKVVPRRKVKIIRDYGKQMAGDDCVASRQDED
measurement-name: log10 of IC50 (log10 of the value in nM)

- compound: "COc1ccccc1CCN1CC(C(=O)NCc2ccc(F)cc2)=C(O)C1=O"
  recorded-number: 0.60
- compound: "O=C(NCc1ccc(F)cc1)C1=C(O)C(=O)N2CCCCC12 (centres undefined)"
  recorded-number: 1.26
- compound: "O=C(NCc1ccc(F)cc1)C1=C(O)C(=O)N(Cc2ccccc2)C1"
  recorded-number: 2.00
- compound: "O=C(NCc1ccc(F)cc1)C1=C(O)C(=O)N(CCCc2ccccc2)C1"
  recorded-number: 0.70
- compound: "Cc1cccc(CN2CC(C(=O)NCc3ccc(F)cc3)=C(O)C2=O)c1"
  recorded-number: 0.78
- compound: "O=C(NCc1ccc(F)cc1)C1=C(O)C(=O)N(Cc2ccccn2)C1"
  recorded-number: 1.97
